# measurement.target: GSK-3β (Oryctolagus cuniculus)
# Sequence (G1T8E2 1-432): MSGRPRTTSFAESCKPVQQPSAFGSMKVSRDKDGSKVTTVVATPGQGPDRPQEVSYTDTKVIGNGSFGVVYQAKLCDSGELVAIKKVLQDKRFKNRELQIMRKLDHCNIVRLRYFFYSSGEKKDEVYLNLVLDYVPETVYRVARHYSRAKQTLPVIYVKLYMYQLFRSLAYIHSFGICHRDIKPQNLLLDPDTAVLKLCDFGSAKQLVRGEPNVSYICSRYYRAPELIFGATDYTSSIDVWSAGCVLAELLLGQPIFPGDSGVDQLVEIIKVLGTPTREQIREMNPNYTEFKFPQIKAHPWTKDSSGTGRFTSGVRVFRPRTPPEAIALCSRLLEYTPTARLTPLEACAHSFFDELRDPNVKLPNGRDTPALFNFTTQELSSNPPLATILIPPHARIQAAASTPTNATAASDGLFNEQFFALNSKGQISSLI
# protocol.description: GSK-3β kinase assay (phosphorylation of CREB phosphopeptide)
# Format: biochemical, rabbit
# setup.conditions: read-out: Kinase inhibition IC50 GSK3β
I'd appreciate it if you could supply pIC50 values for the items below.
Remember the convention: pIC50 equals -log10 of concentration in molar.

Task: What value of pIC50 has been recorded for this entry: `Cc1[nH]c(C#N)c(C)c1-c1ccnc(Nc2ccc(I)cc2)n1`
Result: 5.82

Task: Quick check: pIC50 of `Cc1[nH]c(C#N)c(C)c1-c1ccnc(Nc2ccc(N(C)C)cc2)n1` ?
Result: 5.92

Task: Reported pIC50 for `Cc1[nH]c([N+](=O)[O-])c(C)c1-c1ccnc(Nc2ccc(N(C)C)cc2)n1` : what is it?
Result: 6.02

Task: Bench note: what pIC50 did `COc1ccc(Nc2nccc(-c3sc(=O)n(C)c3C)n2)cc1` show?
Result: 5.96

This collection of values is drawn from patent US20050282843A1.
